Molecular target: SAE (Homo sapiens, UniProt Q9UBT2)
Construct: endogenous in cells; host or cells: HCT116
Sequence (Q9UBT2 whole entry): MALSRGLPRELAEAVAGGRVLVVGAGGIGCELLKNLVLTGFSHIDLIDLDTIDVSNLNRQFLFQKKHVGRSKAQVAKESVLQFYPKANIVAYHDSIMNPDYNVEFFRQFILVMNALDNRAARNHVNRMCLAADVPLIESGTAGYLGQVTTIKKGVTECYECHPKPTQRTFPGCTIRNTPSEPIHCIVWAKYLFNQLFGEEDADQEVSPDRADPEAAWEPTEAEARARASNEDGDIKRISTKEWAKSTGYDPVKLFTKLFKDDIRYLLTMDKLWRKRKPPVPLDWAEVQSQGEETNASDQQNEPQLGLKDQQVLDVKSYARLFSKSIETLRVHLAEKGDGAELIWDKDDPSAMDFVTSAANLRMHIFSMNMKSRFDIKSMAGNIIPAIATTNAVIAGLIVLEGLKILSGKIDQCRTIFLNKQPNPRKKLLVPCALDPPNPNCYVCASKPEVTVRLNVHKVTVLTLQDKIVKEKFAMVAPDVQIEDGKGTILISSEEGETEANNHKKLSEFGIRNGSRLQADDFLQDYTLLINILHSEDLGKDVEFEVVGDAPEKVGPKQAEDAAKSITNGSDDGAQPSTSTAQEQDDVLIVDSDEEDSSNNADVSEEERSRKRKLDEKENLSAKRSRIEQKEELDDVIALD
Sequence (Q9UBE0 whole entry, further chain): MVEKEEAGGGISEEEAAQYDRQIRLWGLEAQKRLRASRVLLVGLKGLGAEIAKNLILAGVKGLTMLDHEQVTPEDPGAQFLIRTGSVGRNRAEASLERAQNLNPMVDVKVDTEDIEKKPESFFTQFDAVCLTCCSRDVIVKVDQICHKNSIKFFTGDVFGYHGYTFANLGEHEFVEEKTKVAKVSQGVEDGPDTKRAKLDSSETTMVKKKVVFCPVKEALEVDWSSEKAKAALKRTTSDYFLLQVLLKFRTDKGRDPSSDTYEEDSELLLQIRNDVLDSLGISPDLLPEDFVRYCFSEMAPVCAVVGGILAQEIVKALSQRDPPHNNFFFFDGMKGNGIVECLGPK
Assay: SUMO IF: in vitro inhibitory activity assay against SAE in HCT116 cells (SUMO-2/3 immunofluorescence)
Format: cell-based
Conditions: class symbols, 6 h at 37° C.
pIC50: −log10 of the molar value.
endpoint name: pIC50

Worked cases, pIC50 given:
[[record]]
compound = "NS(=O)(=O)OC[C@H]1[C@H](F)[C@@H](Nc2ncncc2C(=O)c2cc3c(s2)CCC32NCC(=O)c3ccc(Cl)cc32)C[C@@H]1O (stereo partly drawn)"
tgt = "SAE (Homo sapiens, UniProt Q9UBT2)"
val = "6.70 to 7.30"

[[record]]
compound = "NS(=O)(=O)OC[C@H]1[C@H](F)[C@@H](Nc2ncncc2C(=O)c2cc3c(s2)CC[C@]32OCCc3ccc(F)cc32)C[C@@H]1O"
tgt = "SAE (Homo sapiens, UniProt Q9UBT2)"
val = "6.70 to 7.30"


Query: pIC50; subject: COc1ccc2c(c1)[C@@]1(CCc3sc(C(=O)c4cncnc4N[C@H]4C[C@H](O)[C@@H](COS(N)(=O)=O)[C@@H]4F)cc31)NCC2
6.70 to 7.30

---

Target: SAE (Homo sapiens)
Construct: endogenous in cells; host or cells: HCT116
Assay: SUMO IF: in vitro inhibitory activity assay against SAE in HCT116 cells (SUMO-2/3 immunofluorescence)
Assay type: cell-based
Settings: class symbols, 6 h at 37° C.
pIC50: −log10 of the molar value.
endpoint name: pIC50

[[record]]
compound = "NS(=O)(=O)OC[C@H]1[C@H](F)[C@@H](Nc2ncncc2C(=O)c2cc3c(s2)CCCC32NCC(=O)c3ccc(Cl)cc32)C[C@@H]1O (stereo partly drawn)"
tgt = "SAE (Homo sapiens)"
endpoint_name = "pIC50"
val = "6.70 to 7.30"

[[record]]
compound = "NS(=O)(=O)OC[C@H]1[C@H](F)[C@@H](Nc2ncncc2C(=O)c2cc3c(s2)CCC[C@@]32NCCc3ccccc32)C[C@@H]1O"
tgt = "SAE (Homo sapiens)"
endpoint_name = "pIC50"
val = "< 6.70"

[[record]]
compound = "CN1Cc2sc(C(=O)c3cncnc3N[C@H]3C[C@H](O)[C@@H](COS(N)(=O)=O)[C@@H]3F)cc2[C@@]2(C1)OCCc1ccc(F)cc12"
tgt = "SAE (Homo sapiens)"
endpoint_name = "pIC50"
val = "< 6.70"


Query: pIC50; subject: NS(=O)(=O)OC[C@H]1[C@H](F)[C@@H](Nc2ncncc2C(=O)c2cc3c(s2)CSCC32NCCc3ccccc32)C[C@@H]1O (stereo partly drawn)
< 6.70

Request: Cc1sc(C(=O)c2cncnc2N[C@H]2C[C@H](O)[C@@H](COS(N)(=O)=O)[C@@H]2F)cc1[C@@H]1NCCc2ccccc21
6.70 to 7.30

Request: NS(=O)(=O)OC[C@H]1[C@H](F)[C@@H](Nc2ncncc2C(=O)c2cc3c(s2)CCCC32NCCc3cnc(Cl)cc32)C[C@@H]1O (stereo partly drawn)
6.70 to 7.30

Request: NS(=O)(=O)OC[C@H]1[C@H](F)[C@@H](Nc2ncncc2C(=O)c2cc3c(s2)CN(C2CC2)C[C@]32OCCc3ccc(F)cc32)C[C@@H]1O
≥ 7.30

Request: NS(=O)(=O)OC[C@H]1[C@H](F)[C@@H](Nc2ncncc2C(=O)c2cc3c(s2)CCCC32OCCc3ccc(F)cc32)C[C@@H]1O (stereo partly drawn)
6.70 to 7.30

Request: CC1(C)CN[C@]2(CCCc3sc(C(=O)c4cncnc4N[C@H]4C[C@H](O)[C@@H](COS(N)(=O)=O)[C@@H]4F)cc32)c2cc(Cl)ccc21
6.70 to 7.30

Request: CN1Cc2sc(C(=O)c3cncnc3N[C@H]3C[C@H](O)[C@@H](COS(N)(=O)=O)[C@@H]3F)cc2[C@]2(C1)OCCc1ccccc12
6.70 to 7.30

Request: Cc1sc(C(=O)c2cncnc2N[C@H]2C[C@H](O)[C@@H](COS(N)(=O)=O)[C@@H]2F)cc1C1NC=Cc2ccc(Cl)cc21 (stereo partly drawn)
6.70 to 7.30

Request: NS(=O)(=O)OC[C@H]1[C@H](F)[C@@H](Nc2ncncc2C(=O)c2cc3c(s2)OCC32NCCc3ccc(F)cc32)C[C@@H]1O (stereo partly drawn)
< 6.70
